Origin of values: patent US20260152571A1

Form field: koff (one value per entry).
Target: His-tagged WT1RMF/HLA-A2 complex (human)
Test: SPR, Biacore 8K; antibody captured on Protein A chip, His-tagged complex as analyte; 1:1 Langmuir fit
Write it as a number; the unit s⁻¹ goes unstated.

Sample answers from the record:
4F10-IgG1-SI (antibody, V domains shown, VH and VL joined to IgG1 constant regions with SI mutations (S239D and I332E, EU numbering) in the Fc) VH: QVQLQESGPGLVKPSETLSLTCTVSGGSISNYYWSWIRQPPGKGLEWIGYIYYSGSTNYNPSLKSRVNISVDTSKSQVSLKLNSVIAADTAVYYCARHEDYWYFDLWGRGTLVTVSS VL: DIQLTQSPSSLSASIRDRVTITCRASQDINNYLAWFQQKPGKAPKSLIYAVSSLESGVPSKFSGSGSGTDFTLTISSLQPEDFATYFCQQYNSYPFTFGPGTKVEIK = 0.000664
P01218-IgG1-SI (antibody, V domains shown, VH and VL joined to IgG1 constant regions with SI mutations (S239D and I332E, EU numbering) in the Fc; also called P01218-IgGI-SI) VH: EVQLVESGGGVVQPGRSLRLSCAASGFTFSSYAMHWVRQAPGKGLEWVAVISYDGSNKYYADSVKGRFTISRDNSKNTLYLQMNSLRAEDTAVYYCARAPYYGSGSYYNSYYYYHGMDVWGQGTTVTVSS VL: AIWMTQSPSSLSASVGDRVTITCQASQDISNYLNWYQQKPGKAPNLLIYDASNLETGVPSRFSGSGSGTDFTLTISSLQPEDIATYYCQQYDNLPLTFGGGTKVEIK = 0.000902

Entry under test: P01264-IgG1-SI (antibody, V domains shown, VH and VL joined to IgG1 constant regions with SI mutations (S239D and I332E, EU numbering) in the Fc) VH: EVQLVESGGGLVKPGGSLRLSCAASGFTFSNAWMNWVRQAPGKGLEWVGRIKSKTDGGTTDYAAPVKGRFTISRHDSKNTLYLQMNSLKTEDTAVYYCATDPRIAVTGTDYYYGMDVWGQGTTVTVSS VL: DIVMTQTPSFLSASVGDRVTITCRASQDISNYLNWYQQKPGKAPKLLIYDASNLETGVPSRFSGSGSGTDFTFTISSLQPEDIATYYCQQYDNLPITFGQGTRLEIK . Its koff was 0.0177

According to the records, this binder 1G7-IgG1-SI (antibody, V domains shown, VH and VL joined to IgG1 constant regions with SI mutations (S239D and I332E, EU numbering) in the Fc) VH: QVQLVESGGGVVRPGGSLRLSCTASGFTFDDYGMTWVRQAPGKGLEWVSGINWNGGSTGYADSVKGRFTISRDNAKNSLFLQMNSLRAEDTALYYCARDQGIAVVGTHYYYYYGMDVWGQGTAVTVSS VL: EIVLTQSPATLSLSPGERATLSCRASQSFSSYLAWYQQKPGQAPRLLIFDTSNRATGIPARFSGSGSGTDFTLTISSLEPEDFAVYYCQQRSNWPLTFGGGTKVEIK displays koff of 0.00151
